experiment: Absorption of chitooligosaccharides into the blood of a human volunteer (MALDI-TOF MS, GPC, HPIEC); assay type: in vivo; details: human, serum, oral, 1.8 g daily (ChOS mixture); blood sample after 3 weeks of ChOS consumption; GPC, HPIEC and MALDI-TOF; read-out: Conc (HPIEC homologue)
Endpoint: concentration at 3 weeks (ng/mL)
Dear colleague, please return just the value in ng/mL, with no unit written.

Item CC(=O)N[C@H]1[C@H](O[C@H]2[C@H](O)[C@@H](NC(C)=O)C(O)O[C@@H]2CO)O[C@H](CO)[C@@H](O[C@@H]2O[C@H](CO)[C@@H](O)[C@H](O)[C@H]2NC(C)=O)[C@@H]1O (stereo partly shown) : provide concentration at 3 weeks
4000
